Provide the recorded melting point for the entries that follow.

Value of melting point reported for the compound Cc1c(Nc2c(C#N)cnc3sc(C(=O)O)cc23)ccc2[nH]ccc12 is 287 °C

melting point in this record for N#Cc1cnc2sc(-c3ccccc3)cc2c1Oc1ccc2[nH]ccc2c1 : 219 to 221 °C

Just so you know, measured melting point for Cc1c(Nc2c(C#N)cnc3sc(C#C[Si](C)(C)C)cc23)ccc2[nH]ccc12 came out at 258 to 260 °C

melting point in this record for Cc1c(Nc2c(C#N)cnc3sc(CCC(=O)N4CCCC4)cc23)ccc2[nH]ccc12 : 175 °C

Please fill in: melting point reported for Cc1c(Nc2c(C#N)cnc3sc(C4=CCN(C)CC4)cc23)ccc2[nH]ccc12 = 230 °C

Summary for this compound, N#Cc1cnc2sc(-c3ccccc3C=O)cc2c1Nc1cccc2[nH]ccc12 : melting point is 137 to 139 °C

The compound listed as N#Cc1cnc2sc(-c3ccccc3)cc2c1Nc1cccc2cc[nH]c12 has a reported melting point of > 245 °C

Recorded result, CN1CCN(Cc2ccccc2-c2cc3c(Nc4ccc5[nH]ccc5c4)c(C#N)cnc3s2)CC1 , melting point: 226 to 228 °C

Reported melting point for N#Cc1cnc2sc(-c3cccc(C=O)c3)cc2c1Nc1ccc2[nH]ccc2c1 was 221 to 223 °C

---

measured on: human PKCθ full length enzyme (Homo sapiens)
Sequence (Q04759 whole entry): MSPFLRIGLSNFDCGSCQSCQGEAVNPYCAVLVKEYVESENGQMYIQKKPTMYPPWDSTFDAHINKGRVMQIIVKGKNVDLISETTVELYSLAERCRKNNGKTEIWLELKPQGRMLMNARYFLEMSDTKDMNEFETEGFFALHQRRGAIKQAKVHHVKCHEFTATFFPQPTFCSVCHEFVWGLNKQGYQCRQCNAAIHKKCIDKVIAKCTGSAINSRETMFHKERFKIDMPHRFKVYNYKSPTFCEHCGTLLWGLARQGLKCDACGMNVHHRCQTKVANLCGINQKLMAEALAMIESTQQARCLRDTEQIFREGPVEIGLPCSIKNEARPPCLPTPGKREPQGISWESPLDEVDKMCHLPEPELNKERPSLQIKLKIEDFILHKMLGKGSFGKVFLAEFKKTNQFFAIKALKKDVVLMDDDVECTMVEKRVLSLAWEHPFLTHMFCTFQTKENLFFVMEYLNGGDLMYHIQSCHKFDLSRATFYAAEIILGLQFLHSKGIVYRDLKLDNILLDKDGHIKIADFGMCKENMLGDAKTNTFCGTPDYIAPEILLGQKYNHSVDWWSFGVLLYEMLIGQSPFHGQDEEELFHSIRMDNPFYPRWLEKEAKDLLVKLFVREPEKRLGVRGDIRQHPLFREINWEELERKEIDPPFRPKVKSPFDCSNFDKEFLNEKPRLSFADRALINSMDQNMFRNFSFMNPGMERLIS
Structures can show the parent of a compound that is named as a salt.
Decide using IC50 alone. Strictly below 80 nM: true. Equal to or above 80 nM: false.

Bench note: check whether Cc1c(Nc2c(C#N)cnc3sc(-c4cccc(NS(=O)(=O)N(C)C)c4)cc23)ccc2[nH]ccc12 shows IC50 below 80 nM
true

Below 80 nM on IC50? Entry CCOC(=O)/C=C/c1cc2c(Nc3ccc4[nH]ccc4c3)c(C#N)cnc2s1
false

Does this molecule meet the criterion IC50 < 80 nM? Cc1ccc2[nH]ccc2c1Nc1c(C#N)cnc2sc(-c3ccccc3)cc12
false

Regarding CCOc1ccc2cc(-c3cc4c(Nc5ccc6[nH]ccc6c5C)c(C#N)cnc4s3)ccc2c1 , kindly confirm whether its IC50 is beneath 80 nM.
false

IC50 under 80 nM? Item: Cc1c(Nc2c(C#N)cnc3sc(I)c(C(C)C)c23)ccc2[nH]ccc12
true

Does the reported IC50 of CS(=O)(=O)c1cccc(-c2cc3c(Nc4ccc5[nH]ccc5c4)c(C#N)cnc3s2)c1 stay below 80 nM?
false

Below 80 nM on IC50? Entry COc1ccccc1-c1cc2c(Nc3ccc4[nH]ccc4c3C)c(C#N)cnc2s1
true

Criterion: IC50 strictly below 80 nM. Is it met by CN(C)S(=O)(=O)c1ccc(-c2cc3c(Nc4ccc5[nH]ccc5c4)c(C#N)cnc3s2)cc1 ?
false

Is it true that IC50 reported for CN(C)Cc1cccc(-c2cc3c(Nc4cnc5[nH]ccc5c4)c(C#N)cnc3s2)c1 is less than 80 nM?
false

Determine whether this molecule shows IC50 lower than 80 nM (ties excluded): Cn1ccnc1-c1cc2c(Nc3ccc4[nH]ccc4c3)c(C#N)cnc2s1
false

# TODO verify IC50 < 80 nM strictly for this molecule: COc1ccc(CN2CCN(C)CC2)cc1-c1cc2c(Nc3ccc4[nH]ccc4c3C)c(C#N)cnc2s1
true

Is IC50 strictly under 80 nM for the entry Cc1c(Nc2c(C#N)cnc3sc(-c4ccc(NCCN5CCOCC5)nc4)cc23)ccc2[nH]ccc12 ?
true

Determine whether this molecule shows IC50 lower than 80 nM (ties excluded): Cc1c(Nc2c(C#N)cnc3sc(/C=C/c4ccccc4)cc23)ccc2[nH]ccc12
true

Say whether its IC50 is strictly beneath 80 nM. Entry: N#Cc1cnc2sc(/C=C/C(=O)Nc3cccnc3)cc2c1Nc1ccc2[nH]ccc2c1
false

Confirm or reject: IC50 of N#Cc1cnc2sc(-c3ccccc3)cc2c1Nc1ccc2cc[nH]c2c1 [Compound 116, hydrochloride] lies strictly below 80 nM
false
